Tested on: 883617-216-R-J1-PDC complex spheroid viability
experiment: Anticancer human tumor 883617-216-R-J1-PDC patient-derived bladder carcinoma cell line growth inhibition
condition_context: curve of first compound; second compound 10 µM
Excerpt: Multicellular complex tumor spheroid response to LSD1 Inhibitor Iadademstat in combination with a variety of drugs and investigational agents in selected tumor cell lines The current study was undertaken to assess response to LSD1 inhibitors in combination with standard-of-care drugs and investigational agents in solid tumor complex spheroid models as well as in the K-562 leukemia. […] Compounds. […] If the clinical Cmax for an agent had not been determined, the highest concentration tested was 10 microM. […]
pIC50: −log10 of the molar value.
Measured pIC50 by item
readout_type: pIC50

[[record]]
molecule = "Nc1ncn(C2CC(O)C(CO)S2)c(=O)n1 (configuration not stated) + NC1CCC(NC2CC2c2ccccc2)CC1"
measured_on = "883617-216-R-J1-PDC complex spheroid viability"
readout_type = "pIC50"
qualifying_sign = "<"
value_measured = 6.52

[[record]]
molecule = "Nc1ccn(C2OC(CO)C(O)C2(F)F)c(=O)n1 (configuration not stated) + NC1CCC(NC2CC2c2ccccc2)CC1"
measured_on = "883617-216-R-J1-PDC complex spheroid viability"
readout_type = "pIC50"
qualifying_sign = ">"
value_measured = 9.02

[[record]]
molecule = "COc1cc(Nc2ncc3c(n2)-c2ccc(Cl)cc2C(c2c(F)cccc2OC)=NC3)ccc1C(=O)O + NC1CCC(NC2CC2c2ccccc2)CC1"
measured_on = "883617-216-R-J1-PDC complex spheroid viability"
readout_type = "pIC50"
qualifying_sign = "<"
value_measured = 6.00

[[record]]
molecule = "O=C(c1cc(Cc2n[nH]c(=O)c3ccccc23)ccc1F)N1CCN(C(=O)C2CC2)CC1 + NC1CCC(NC2CC2c2ccccc2)CC1"
measured_on = "883617-216-R-J1-PDC complex spheroid viability"
readout_type = "pIC50"
qualifying_sign = "="
value_measured = 5.05

[[record]]
molecule = "COc1cc(C2c3cc4c(cc3C(OC3OC5COC(C)OC5C(O)C3O)C3COC(=O)C23)OCO4)cc(OC)c1O (configuration not stated) + NC1CCC(NC2CC2c2ccccc2)CC1"
measured_on = "883617-216-R-J1-PDC complex spheroid viability"
readout_type = "pIC50"
qualifying_sign = "="
value_measured = 5.76

[[record]]
molecule = "O=C(C=Cc1cccc(S(=O)(=O)Nc2ccccc2)c1)NO + NC1CC1c1ccc(-c2cccc(O)c2)cc1"
measured_on = "883617-216-R-J1-PDC complex spheroid viability"
readout_type = "pIC50"
qualifying_sign = "="
value_measured = 7.44

[[record]]
molecule = "O=C(c1cc(Cc2n[nH]c(=O)c3ccccc23)ccc1F)N1CCN(C(=O)C2CC2)CC1 + NC1CC1c1ccc(-c2cccc(O)c2)cc1"
measured_on = "883617-216-R-J1-PDC complex spheroid viability"
readout_type = "pIC50"
qualifying_sign = "="
value_measured = 6.80


* * *

The following molecules are listed with their measured viability, T/C values.
Tested on: 883617-216-R-J1-PDC complex spheroid viability
experiment: Anticancer human tumor 883617-216-R-J1-PDC cell line growth inhibition;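 also: exposure lasted seven days after three days of spheroid growth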;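 as to viability, T/C: 100% = DMSO vehicle control luminescence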
condition_context: second compound 0.1 µM; first compound 0.316 µM; stronger effect = lower value
readout_type: viability, T/C

[[record]]
molecule = "O=C(c1cc(Cc2n[nH]c(=O)c3ccccc23)ccc1F)N1CCN(C(=O)C2CC2)CC1 + NC1CCC(NC2CC2c2ccccc2)CC1"
value_measured = "93.3%"

[[record]]
molecule = "O=C(C=Cn1cnc(-c2cc(C(F)(F)F)cc(C(F)(F)F)c2)n1)NNc1cnccn1 + NC1CC1c1ccc(-c2cccc(O)c2)cc1"
value_measured = "15.6%"

[[record]]
molecule = "COc1ccc([C@@H](O)c2cc(-c3ncnc4cc(N5CCOCC5)ccc34)c(F)cc2Cl)nn1 + NC1CCC(NC2CC2c2ccccc2)CC1"
value_measured = "72%"

